run.description: HILIC, Waters ACQUITY UPLC BEH Amide, 100 × 2.1 mm, 1.7 µm; A: water + 0.125% formic acid + 10 mM ammonium formate; B: 5% water + 95% acetonitrile + 0.125% formic acid + 10 mM ammonium formate; gradient (min/%B) 0/100 2/100 7.7/70 9.5/40 10.25/30 12.75/100 17/100
condition.info: stereoisomer not certain
assay.endpoint: LC retention time (min)

// solved cases for LC retention time follow
molecule	unit.of.measurement	LC retention time
COc1cc(-c2oc3cc(O)cc(O)c3c(=O)c2OC2OC(CO)C(O)C(O)C2O)cc(OC)c1O (centres undefined) [Syringetin-3-O-glucoside]	min	4.32
CCCCCC=CCC=CCC=CCC=CCCCC(=O)NCCc1ccc(O)c(O)c1 [Arachidonyl dopamine]	min	1.14

I. NCCCCC(N)C(=O)NCC(=O)O (centres undefined) [Lys-Gly]
II. O=C(C=Cc1ccccc1O)c1ccccc1 [2-Hydroxychalcone]
Smaller LC retention time value, I vs II ? Answer format: the label of the selected item. II
